System: MOLT-4
Assay Text: Antiproliferative activity against human MOLT4 cells
Assay type: functional, cell-based
Quantity Name: IC50 (µg/mL)

The examples below pair each entry with its known result.
CC(=O)O[C@H]1CC[C@@]2(C)[C@@H](CC[C@]3(C)/C(=C(C)/C=C/C=C(\C)[C@@H](O)CC=C(C)C)C(=O)C[C@@H]23)[C@@]1(C)CO (mixture of isomers)
1.62
CC(=O)O[C@@H](CC=C(C)C)/C(C)=C/C=C/C(C)=C1\C(=O)C[C@H]2[C@@]3(C)CC[C@@H](OC(C)=O)[C@](C)(CO)[C@@H]3CC[C@]12C (mixture of isomers)
16.6

P = CC(=O)O[C@@H](CC=C(C)C)/C(C)=C/C=C/C(C)=C1\C(=O)C[C@H]2[C@@]3(C)CC[C@H](OC(C)=O)[C@](C)(CO)[C@@H]3CC[C@]12C (mixture of isomers)
Q = CC(=O)O[C@@H](CC=C(C)C)/C(C)=C/C=C/C(C)=C1\C(=O)C[C@H]2[C@@]3(C)CC[C@@H](O)[C@](C)(CO)[C@@H]3CC[C@]12C (mixture of isomers)
IN: Please indicate which has the smaller reported IC50: P , or Q . Respond with the label that goes with your answer.
OUT: Q
(Q: 4.11 µg/mL, P: 19.5 µg/mL)
